- System: A673/TR/shEF
- method: cell viability (LOESS-normalised, relative to median of negative controls) (log2 ratio); higher = more viable cells (less compound effect), active = hit call of the paper (over 3 MAD below the median)
- testContext: 2.5 µM; library screen: screen1; EWS-FLI1 expression: high (no doxycycline); treatment time: 72 h
Hit rate of the full screen: of about 3,200 compounds, about 300 (9.4%) showed activity. For the sample, actives were picked, then their nearest neighbours and some compounds at random.
Give cell viability (log2) for every item shown.
Just the number, please, no unit after it.

Hi! What's the reported cell viability (log2) for `O=c1c(O)c(-c2cc(O)c(O)c(O)c2)oc2cc(O)ccc12` on A673/TR/shEF?
0.0648

What about CC(=O)O[C@@H]1CC2C(C)(C)[C@H](O)C[C@H](O)[C@]2(C)C2CC[C@@]3(C)[C@H](c4ccoc4)OC(=O)[C@H]4O[C@]43[C@@]21C (stereo partly drawn) ?
0.13

Entry `COc1ccc(-c2cc(=O)c3ccccc3o2)cc1OC` please
0.068

What about `CC(C)C[C@H](NC(=O)[C@H](CCC(=O)O)NC(=O)CNC(=O)c1ccc(/C=C/C(=O)O)cc1)C(N)=O` ?
-0.0597

What about `COc1ccc(Cl)cc1C(=O)NCCc1ccc(S(=O)(=O)NC(=O)NC2CCCCC2)cc1` ?
0.0749

What would you report for `CCOc1cc(C(=O)Nc2ccc([N+](=O)[O-])cc2)cc(OCC)c1OCC` ?
0.0696

Request: `C[C@]12CC[C@@H]3c4ccc(O)cc4CC[C@H]3[C@@H]1CC[C@@H]2O`
0.0979

Ok, now `COc1ccc(-c2cc(=O)c3c(O)cc(O[C@@H]4O[C@H](CO[C@@H]5O[C@@H](C)[C@H](O)[C@@H](O)[C@H]5O)[C@@H](O)[C@H](O)[C@H]4O)cc3o2)cc1O`
-0.0968

Proceed to COc1ccccc1C1NC(=S)NC(C)=C1C(=O)Nc1ccccc1Cl (stereo not drawn)
0.107

Query `CCOC(=O)c1c(C)cc(O)c(C)c1O` next
0.0865

Now the same for `CN(C)CCC=C1c2ccccc2CCc2ccccc21`
0.144

Again, but for `CN(C)CCC=C1c2ccccc2C=Cc2ccccc21`
0.117

And what about the compound `C=CCc1ccc(O)c(OC)c1` ?
0.127

Now consider `O=C1c2cccc(O)c2C(=O)c2c(O)cccc21` and answer again.
0.149

Ok, now `COc1ccc(-c2cc(=O)c3c(O)c(OC)c(OC)cc3o2)cc1O`
-0.654

Lookup Clc1ccc(COC(Cn2ccnc2)c2ccc(Cl)cc2Cl)cc1 (stereo not drawn)
0.0561

Please answer likewise for `C[C@@H]1CC[C@H]2[C@](C)(CO)[C@@H](O)CC[C@]2(C)[C@@]12CC[C@@](CO)(CCO)O2`
0.0942

And COc1cc(C2NC(=S)NC(C)=C2C(=O)Nc2cccc(Cl)c2)cc(OC)c1OC (stereo not drawn) ?
0.204

Can you check C=C(C)C1Cc2c(ccc(C(=O)O)c2O)O1 (stereo not drawn) next?
0.106

Entry CCC(C)CCCCC(=O)NC(CCNCS(=O)(=O)O)C(=O)NC(C(=O)NC(CCNCS(=O)(=O)O)C(=O)NC1CCNC(=O)C(C(C)O)NC(=O)C(CCNCS(=O)(=O)O)NC(=O)C(CCNCS(=O)(=O)O)NC(=O)C(CC(C)C)NC(=O)C(CC(C)C)NC(=O)C(CCNCS(=O)(=O)O)NC1=O)C(C)O (stereo not drawn) please
0.103

What do we get for `Oc1ccc2c(c1)O[C@H](c1ccc(O)c(O)c1)[C@@H](O)C2` ?
0.0985

Entry `COc1ccc(-c2cc(=O)c3c(O)cc(O)cc3o2)cc1O` please
-0.0793

How about `O=C1c2ccc(O)c(O)c2C(=O)c2c(O)ccc(O)c21` ?
0.117

Proceed to `CN(C)CC/C=C1\c2ccccc2COc2ccccc21`
0.131

Record: C=C1CCC(=O)C(C)CCC2C1CC2(C)C (stereo not drawn)
0.119

How about this compound: CCN(CC)CCCC(C)Nc1c2ccc(Cl)cc2nc2ccc(OC)cc12 (stereo not drawn)
0.176

Cool, now CC(C)NCC(O)COc1cccc2ccccc12 (stereo not drawn)
0.146

Record: `CCCCCCCCCCCCCCCC(=O)O[C@H](CC(=O)[O-])C[N+](C)(C)C`
0.0599

Cool, now `CSCC[C@H](NC=O)C(=O)N[C@@H](Cc1ccccc1)C(=O)O`
0.0791

Can you check C=CCc1ccccc1OCC(O)CNC(C)C (stereo not drawn) next?
0.0928

Another compound to look at: CCCN(CCC)C(=O)C(CCC(=O)O)NC(=O)c1ccccc1 (stereo not drawn)
0.223

# repeat for CCN(CC)CCCC(C)Nc1ccnc2cc(Cl)ccc12 (stereo not drawn)
0.0579

What about this compound? CC1(C)C(=O)CC[C@@]2(C)C1C[C@@H](O)[C@@]1(C)C3=CC(=O)O[C@@H](c4ccoc4)[C@]3(C)CCC21 (stereo partly drawn)
0.0284

# repeat for C/C1=C2N=C(/C=C3N=C(/C(C)=C4\[N-]C(C(CC(N)=O)C4(C)CCC(=O)NCC(C)OP(=O)([O-])OC4C(CO)OC(n5cnc6cc(C)c(C)cc65)C4O)C4(C)N=C1C(CCC(N)=O)C4(C)CC(N)=O)C(CCC(N)=O)C\3(C)C)C(CCC(N)=O)C/2(C)CC(N)=O.[Co+3] (stereo not drawn)
0.0729

Same thing, different compound: `COc1c(C)c2c(c(O)c1C/C=C(\C)CCC(=O)O)C(=O)OC2`
0.0367

Next compound: `C=CCc1ccc(OC(=O)c2ccccc2)c(OC)c1`
0.111

Now the same for COc1ccc(-c2cc(=O)c3c(O)c(OC)c(OC4OC(COC5OC(C)C(O)C(O)C5O)C(O)C(O)C4O)cc3o2)cc1 (stereo not drawn)
0.171

Moving on to CCC(=O)c1ccc2c(c1)N(CC(C)N(C)C)c1ccccc1S2 (stereo not drawn)
0.168
